subjectOfTest: T1, TNFR1 (Homo sapiens, UniProt P19438)
T1 chain: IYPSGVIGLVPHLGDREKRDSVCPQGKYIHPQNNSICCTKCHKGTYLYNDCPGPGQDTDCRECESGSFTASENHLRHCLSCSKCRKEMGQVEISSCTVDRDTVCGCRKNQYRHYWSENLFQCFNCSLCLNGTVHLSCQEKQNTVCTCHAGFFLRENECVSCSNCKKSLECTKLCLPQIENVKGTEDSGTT
assayName: yeast display SC50
outcomeMeasure: apparent Kd (screen) (nM)
// units = nM; emit number, no label

[
  {
    "binder": "E78I (designed binder) SMEEEVEKAAKEYEKKKKEAIEKHLEKLKAKDKEAAERFLKELEEAAKEYAKDEAKTMSEEEAKRRAKKYKEKVLLSILSEEEQKEIKEAEEKLVRTILKYVEEAAK",
    "unitLabel": "nM",
    "apparent Kd (screen)": 0.49
  }
]

Query binder follows.
Query :: Could you share which apparent Kd (screen) value was measured for A105I (designed binder) SMEEEVEKAAKEYEKKKKEAIEKHLEKLKAKDKEAAERFLKELEEAAKEYAKDEAKTMSEEEAKRRAKKYKEKVLLSELSEEEQKEIKEAEEKLVRTILKYVEEIAK ?
Result :: 1.69
